Measured values drawn from ChEMBL document CHEMBL1124015 for this set.

# Target under test: Cholecystokinin receptor type A (Rattus norvegicus)
# Assay notes: Half-maximal inhibition of [125I]CCK-33 binding to cholecystokinin A receptor from rat pancreatic tissue
Assay metric: log10 IC50 (log10 of the value in nM)

INSERT INTO results (compound, target_under_test, endpoint_result) VALUES
  ('O=C(NC1N=C(c2ccccc2)c2ccccc2NC1=O)c1ccc(Cl)cc1 (stereo not given)', 'Cholecystokinin receptor type A (Rattus norvegicus)', 1.61),
  ('O=C(NC1N=C(c2ccccc2)c2ccccc2NC1=O)c1ccc(Cl)c(Cl)c1 (stereo not given)', 'Cholecystokinin receptor type A (Rattus norvegicus)', 1.46),
  ('O=C(NC1N=C(c2ccccc2F)c2ccccc2NC1=O)c1cc2cc(O)ccc2[nH]1 (stereo not given)', 'Cholecystokinin receptor type A (Rattus norvegicus)', 1.85),
  ('O=C1Nc2ccccc2C(c2ccccc2)=NC1NCCc1c[nH]c2ccccc12 (stereo not given)', 'Cholecystokinin receptor type A (Rattus norvegicus)', 3.48),
  ('O=C(NC1N=C(c2ccccc2F)c2ccccc2NC1=O)c1cc2cc(Cl)ccc2[nH]1 (stereo not given)', 'Cholecystokinin receptor type A (Rattus norvegicus)', 1.85),
  ('O=C(NC1N=C(c2ccccc2)c2ccccc2NC1=O)c1ccc(O)cc1 (stereo not given)', 'Cholecystokinin receptor type A (Rattus norvegicus)', 3.26),
  ('CN1C(=O)CN=C(c2ccccc2F)c2ccccc21', 'Cholecystokinin receptor type A (Rattus norvegicus)', 4.62),
  ('CN1C(=O)C(NC(=O)c2cc3ccccc3[nH]2)N=C(c2ccccc2F)c2ccccc21 (stereo not given)', 'Cholecystokinin receptor type A (Rattus norvegicus)', 0.15);

---

# Target under test: Cholecystokinin receptor type A (Rattus norvegicus)
# Sequence (P30551 whole entry): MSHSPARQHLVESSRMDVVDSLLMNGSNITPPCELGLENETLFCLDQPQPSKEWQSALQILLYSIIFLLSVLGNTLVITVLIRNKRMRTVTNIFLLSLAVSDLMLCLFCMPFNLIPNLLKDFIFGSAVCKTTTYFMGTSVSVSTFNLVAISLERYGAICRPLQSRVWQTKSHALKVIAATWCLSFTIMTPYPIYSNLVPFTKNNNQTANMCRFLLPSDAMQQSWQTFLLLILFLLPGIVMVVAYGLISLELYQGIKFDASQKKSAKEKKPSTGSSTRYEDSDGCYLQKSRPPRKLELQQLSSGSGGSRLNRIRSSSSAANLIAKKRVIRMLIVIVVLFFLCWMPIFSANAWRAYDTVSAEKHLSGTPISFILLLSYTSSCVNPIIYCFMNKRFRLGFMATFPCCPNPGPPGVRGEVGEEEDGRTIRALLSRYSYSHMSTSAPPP
# Assay notes: Half-maximal inhibition of [125I]CCK-33 binding to cholecystokinin A receptor from rat pancreatic tissue
Assay metric: IC50 (µM)

INSERT INTO results (molecule, target_under_test, assay_metric, qual, endpoint_result) VALUES
  ('O=C(NC1N=C(c2ccccc2F)c2ccccc2NC1=O)c1ccc(Cl)cc1 (stereo not given)', 'Cholecystokinin receptor type A (Rattus norvegicus)', 'IC50', '=', 0.006),
  ('CC(=O)NC1N=C(c2ccccc2F)c2ccccc2NC1=O (stereo not given)', 'Cholecystokinin receptor type A (Rattus norvegicus)', 'IC50', '=', 40),
  ('CCOC(=O)CN1C(=O)C(NC(=O)c2ccc(Cl)cc2)N=C(c2ccccc2F)c2ccccc21 (stereo not given)', 'Cholecystokinin receptor type A (Rattus norvegicus)', 'IC50', '=', 0.11),
  ('CC1(C(=O)NC2N=C(c3ccccc3F)c3ccccc3NC2=O)C=Cc2ccccc21 (stereo not given)', 'Cholecystokinin receptor type A (Rattus norvegicus)', 'IC50', '=', 0.022),
  ('CN1C(=O)C(NC(=O)c2ccccc2Cl)N=C(c2ccccc2)c2ccccc21 (stereo not given)', 'Cholecystokinin receptor type A (Rattus norvegicus)', 'IC50', '=', 3.4),
  ('O=C(NC1N=C(c2ccccc2)c2ccccc2NC1=O)c1ccccc1Cl (stereo not given)', 'Cholecystokinin receptor type A (Rattus norvegicus)', 'IC50', '=', 7.5),
  ('CN1C(=O)[C@@H](NC(=O)c2cc3ccccc3[nH]2)N=C(c2ccccc2F)c2ccccc21', 'Cholecystokinin receptor type A (Rattus norvegicus)', 'IC50', '=', 0.006),
  ('O=C(NC1N=C(c2ccccc2)c2ccccc2NC1=O)c1ccc(F)cc1 (stereo not given)', 'Cholecystokinin receptor type A (Rattus norvegicus)', 'IC50', '=', 0.48),
  ('O=C1Nc2ccccc2C(c2ccccc2F)=NC1NCc1cc2ccccc2[nH]1 (stereo not given)', 'Cholecystokinin receptor type A (Rattus norvegicus)', 'IC50', '=', 0.087),
  ('O=C(NC1N=C(c2ccccc2F)c2ccccc2NC1=O)c1ccc([N+](=O)[O-])cc1 (stereo not given)', 'Cholecystokinin receptor type A (Rattus norvegicus)', 'IC50', '=', 0.11),
  ('CN1C(=O)C(NC(=O)c2ccc(C(F)(F)F)cc2)N=C(c2ccccc2F)c2ccccc21 (stereo not given)', 'Cholecystokinin receptor type A (Rattus norvegicus)', 'IC50', '=', 0.02),
  ('CSc1ccc(C(=O)NC2N=C(c3ccccc3)c3ccccc3NC2=O)cc1 (stereo not given)', 'Cholecystokinin receptor type A (Rattus norvegicus)', 'IC50', '=', 0.22),
  ('CN1C(=O)C(NC(=O)c2cc3ccccc3n2C)N=C(c2ccccc2)c2ccccc21 (stereo not given)', 'Cholecystokinin receptor type A (Rattus norvegicus)', 'IC50', '=', 0.0014),
  ('CN1C(=O)[C@H](N)N=C(c2ccccc2)c2ccccc21', 'Cholecystokinin receptor type A (Rattus norvegicus)', 'IC50', '>', 100),
  ('O=C(O)CN1C(=O)C(NC(=O)c2cc3ccccc3[nH]2)N=C(c2ccccc2F)c2ccccc21 (stereo not given)', 'Cholecystokinin receptor type A (Rattus norvegicus)', 'IC50', '=', 0.0015),
  ('O=C(Cc1cccc2sccc12)NC1N=C(c2ccccc2F)c2ccccc2NC1=O (stereo not given)', 'Cholecystokinin receptor type A (Rattus norvegicus)', 'IC50', '=', 1),
  ('N#Cc1ccc(C(=O)NC2N=C(c3ccccc3)c3ccccc3NC2=O)cc1 (stereo not given)', 'Cholecystokinin receptor type A (Rattus norvegicus)', 'IC50', '=', 0.73),
  ('O=C(O)CN1C(=O)C(NC(=O)c2cc3ccccc3[nH]2)N=C(c2ccccc2)c2ccccc21 (stereo not given)', 'Cholecystokinin receptor type A (Rattus norvegicus)', 'IC50', '=', 0.0014),
  ('CN1C(=O)[C@@H](NC(=O)c2ccc(Br)cc2)N=C(c2ccccc2F)c2ccccc21', 'Cholecystokinin receptor type A (Rattus norvegicus)', 'IC50', '=', 0.0008),
  ('CN(C)c1ccc(C(=O)NC2N=C(c3ccccc3F)c3ccccc3NC2=O)cc1 (stereo not given)', 'Cholecystokinin receptor type A (Rattus norvegicus)', 'IC50', '=', 0.27);
